- Assay protocol: qHTS assay for identifying genotoxic compounds that show differential cytotoxicity against isogenic chicken DT40 cell lines with known DNA damage response pathways - Rad54/Ku70 mutant cell line (AID 743015); also: nearly all actives have a fitted effect of over 60% in size
- Reported conditions: DT40 Rad54/Ku70 mutant viability, CellTiter-Glo, 40 h; series mostly up to 66.8 µM
Records with an inconclusive call do not appear. The source made the active and inactive calls. Calls follow the shape of the dose curve; as a rule, active = well fitted cell-killing curve with a large enough effect in the repeat runs; inconclusive = weak or mixed curves; inactive = no such curve, though single readings can be large or run the other way.
Outcomes: active, inactive

Compound: COC(=O)N(OC)c1ccccc1COc1ccn(-c2ccc(Cl)cc2)n1
Class assignment: active
//
Compound: COc1ccc(Cc2nccc3cc(OC)c(OC)cc23)cc1OC
Class assignment: active
//
Compound: O=S(=O)(O)F
Class assignment: inactive
//
Compound: CN
Class assignment: inactive
//
Compound: CCCCC(CC)COC(=O)OOC(C)(C)C (stereo not given)
Class assignment: inactive
//
Compound: O.O.O.O.O.O.O.O=S(=O)([O-])[O-].[Co+2]
Class assignment: inactive
//
Compound: CC(=O)O.CC(=O)O.CC(=O)O.CC(=O)O.CC(=O)O.CC(=O)O.CC(=O)O.O.O.[Cr].[Cr].[Cr]
Class assignment: inactive
//
Compound: Oc1cc(Cl)cc(Cl)c1
Class assignment: active
//
Compound: C=CC(=O)[O][Sn]([CH2]CCC)([CH2]CCC)[CH2]CCC
Class assignment: active
//
Compound: CCC(OC(C)=O)C(CC(C)NC)(c1ccccc1)c1ccccc1 (stereo not given)
Class assignment: active
//
Compound: ClC1(Cl)C2(Cl)C3(Cl)C4(Cl)C(Cl)(Cl)C5(Cl)C3(Cl)C1(Cl)C5(Cl)C24Cl (stereo not given)
Class assignment: inactive
//
Compound: Nc1nc(N)nc(Cl)n1
Class assignment: inactive
//
Compound: C=C(C)C(=O)[O][Sn]([CH2]CCC)([CH2]CCC)[CH2]CCC
Class assignment: active
//
Compound: N#CSCc1ccccc1
Class assignment: inactive
//
Compound: CO/N=C(\C(=O)OC)c1ccccc1CO/N=C(\C)c1cccc(C(F)(F)F)c1
Class assignment: active
//
Compound: COP(=O)(OC)O/C(=C\Cl)c1cc(Cl)c(Cl)cc1Cl
Class assignment: active
//
Compound: Nc1cc(Cl)ccc1Cl
Class assignment: inactive
//
Compound: CCN(CC)C(=O)N[C@@H]1C=C2c3cccc4[nH]cc(c34)C[C@@H]2N(C)C1
Class assignment: active
//
Compound: CC(=O)C(Cl)C(=O)N(C)C (stereo not given)
Class assignment: active
//
Compound: [Cl-].[Cl-].[Cl-].[Yb+3]
Class assignment: inactive
//
Compound: ClC1=C(Cl)[C@]2(Cl)[C@@H]3[C@H]4C[C@H]([C@@H]5O[C@H]45)[C@@H]3[C@@]1(Cl)C2(Cl)Cl
Class assignment: active
//
Compound: O=Cc1ccccc1
Class assignment: inactive
//
Compound: c1ccc(Nc2ccc(Nc3ccccc3)cc2)cc1
Class assignment: active
//
Compound: CCCCCCC[CH2][Sn]([Cl])([Cl])[CH2]CCCCCCC
Class assignment: inactive
//
Compound: Oc1ccc2[nH]cc(CCCCN3CC=C(c4ccccc4)CC3)c2c1
Class assignment: active
